Tested on: COLO 205
Experiment: Growth inhibition of human COLO205 cells after 48 hrs by sulforhodamine B assay
Type: functional
Conditions: COLO 205, 48 h
The reader will find reported log10 GI50 values listed item by item below.
Log scale reminder: GI50 in µM, then log10 taken.

Some molecules with recorded log10 GI50:
INSERT INTO measurements (smiles_representation, metric_name, recorded_result) VALUES
  ('O=C(c1nn(-c2ccc(Cl)cc2)cc1O)n1nc(-c2ccco2)cc1C(F)(F)F', 'log10 GI50', 0.47),
  ('CC1=NN(C(=O)c2nn(-c3ccc(Cl)cc3)cc2O)C(=O)C1', 'log10 GI50', 0.68),
  ('N#Cc1cnn(C(=O)c2nn(-c3ccc(Cl)cc3)cc2O)c1N', 'log10 GI50', -0.04),
  ('Cc1cc(C)n(C(=O)c2nn(-c3ccc(Cl)cc3)cc2O)n1', 'log10 GI50', 1.27),
  ('O=C1CC(=O)N(C(=O)c2nn(-c3ccc(Cl)cc3)cc2O)N1', 'log10 GI50', -0.03);

Now consider a different molecule.
Ask: Give me measured log10 GI50, please, for this molecule: Cc1c2c(nn1C(=O)c1nn(-c3ccc(Cl)cc3)cc1O)-c1ccccc1CC2
Reply: -0.54
